# System: BT-549 breast
# Assay Info: NCI-60 one-dose screen, 48 h
# Run Parameters: 10 µM
Compounds without any hit were thinned out: in the full panel of roughly 83,000, 20% have a hit. Activity calls are given as the source filed them. Rule for the calls: active = growth percent below 10; inactive = the rest.
# output must be one of True (active), False (inactive)

Example cases with answers are listed next.
COc1ccc(-c2nn(-c3cccc(Cl)c3)cc2-c2c(C#N)c(N)n(N)c(=O)c2C#N)cc1 ... False
COc1ccc(/C=C2\CCCC3=C2NC(N)=NC3c2ccc(OC)cc2)cc1 (centres undefined) ... False
Cc1cc(Cl)ccc1Nc1nc(C(F)(F)F)ccc1C(=O)N/N=C/c1cccc(O)c1 ... True

query: GET /call?item= c1ccc(CCCCc2ccc3ccccc3n2)cc1 returns the recorded outcome of this test.
result: False

* * *

# System: OVCAR-4 ovarian
# Assay Info: NCI-60 one-dose screen, 48 h (100 = growth as untreated, 0 = no growth, -100 = all killed)
# Run Parameters: 10 µM
This is part of a sample that, as a whole, favours compounds with a hit. Of some 83,000 tested, about 20% had one in any assay.
Bucketed by reported growth, buckets being L: < 20%; M: ≥ 20% and < 80%; H: ≥ 80%

Example cases with answers are listed next.
CNC(=O)c1cn(C2CC2)c2cc(N3CCN(C(=O)c4cc(OC)c(OC)c(OC)c4)CC3)c(F)cc2c1=O ... H
N#Cc1c(-c2ccc(Cl)cc2)csc1NC(=O)Nc1ccc(Cl)c(C(F)(F)F)c1 ... L
Nc1ccc(CC[C@H]2CCC/C=C/[C@@H]3C[C@H](O)C[C@H]3[C@H](O)/C=C/C(=O)O2)cc1 ... L

query: Tag the class for O=C(COc1cccc(/C=C2\CSc3ccc(Cl)cc3C2=O)c1)c1ccc(Cl)cc1
result: M

query: Tag the class for CCCCC(CC)CN=C(N)NC(N)=NCCCCCCN=C(N)NC(N)=NCC(CC)CCCC (centres undefined)
result: L

query: Tag the class for COc1cc(-c2nn(-c3ccc(NC(=O)NCCCNC(=O)c4ccccc4)cc3)cc2-c2ccncc2)ccc1Cl
result: M

query: Tag the class for N#Cc1c(-c2ccc(Cl)cc2)cc(-c2cc(O)ccc2O)nc1N
result: M

query: Tag the class for O=C(CCl)Nc1ccc(Cc2ccc(NC(=O)CCl)cc2)cc1
result: M

query: Tag the class for COc1cc2cc(Oc3ccc(NC(=O)Nc4ccc(C(F)(F)F)cc4)cc3)c(C)nc2cc1OC
result: M

query: Tag the class for O=C1c2c(c3c4ccccc4n(CCCCCCN4CCOCC4)c3c3[nH]c4ccccc4c23)C(=O)N1O
result: H

* * *

We begin with a simple list: items and their reported growth.
# Tested on: UACC-257 melanoma
# Assay Info: NCI-60 one-dose screen, 48 h (100 = growth as untreated, 0 = no growth, -100 = all killed)
# Run Parameters: 10 µM
The panel holds about 83,000 compounds, 20% with a hit somewhere; the sample as a whole holds those more often.
Quick reminder: number only, in %, skip the unit.

In plain terms, NS(=O)(=O)Oc1ccc2c(ccn2C(=O)C23CC4CC(CC(C4)C2)C3)c1 has a documented growth of 102

In plain terms, COc1ccc2c(c1)C(=O)/C(=C/c1cccc(OCC(=O)c3ccc([N+](=O)[O-])cc3)c1)CO2 has a documented growth of -49.4

In plain terms, CCOC(=O)c1cc(C(=O)c2cc(OC)cc(OC)c2)n2ncc3ccccc3c12 has a documented growth of 49

In plain terms, CN(C)CCCN1c2ccccc2CCc2ccc(Cl)cc21 has a documented growth of -11.9

In plain terms, CN1CCN(c2cc3c(cc2F)c(=O)c(C(=O)O)cn3-c2ccc(F)cc2)CC1 has a documented growth of 105

In plain terms, O=C1/C=C/[C@@H](O)[C@@H]2C[C@@H](O)C[C@H]2/C=C/CCC[C@H](C(F)(F)F)O1 has a documented growth of 6

In plain terms, CCCCN(CCCC)C(=O)[C@H](CC)[C@@H]1CC[C@@H](C)[C@@H]([C@H](C)[C@@H](O)[C@@H](C)C(=O)[C@H](CC)C2O[C@]3(C=C[C@@H](O)[C@]4(CC[C@@](C)([C@H]5CC[C@](O)(CC)[C@H](C)O5)O4)O3)[C@H](C)C[C@@H]2C)O1 (stereo not given in full) has a documented growth of 0.418

In plain terms, O=[N+]([O-])c1ccc(NCSc2ccc(Cl)cc2)cc1 has a documented growth of 101

In plain terms, O=C1/C=C/[C@@H](O)[C@@H]2C[C@@H](O)C[C@H]2/C=C/CCC[C@@H](C(F)(F)F)O1 has a documented growth of 51.8

In plain terms, CCn1c(SC/C(=N/O)c2ccccc2)nnc1-c1ccccc1 has a documented growth of 104

In plain terms, CS(=O)(=O)c1nccc(-c2c(-c3cccc(O)c3)nc3sccn23)n1 has a documented growth of 92.9

In plain terms, C=CCn1c(SCC(=O)Nc2ccc(C(=O)/C=C/c3ccc(OC)cc3)cc2)nnc1-c1ccc(OC)c(OC)c1 has a documented growth of 84.6

In plain terms, O=C(O)Cc1ccc(O)c(O)c1 has a documented growth of 110
